Target: T1, human PD-L1-Fc (SinoBiological) (human, UniProt Q9NZQ7 19-239)
T1 construct: Bought; not shown: Fc of a bought fusion protein
T1 sequence (Q9NZQ7 19-239 limits assumed): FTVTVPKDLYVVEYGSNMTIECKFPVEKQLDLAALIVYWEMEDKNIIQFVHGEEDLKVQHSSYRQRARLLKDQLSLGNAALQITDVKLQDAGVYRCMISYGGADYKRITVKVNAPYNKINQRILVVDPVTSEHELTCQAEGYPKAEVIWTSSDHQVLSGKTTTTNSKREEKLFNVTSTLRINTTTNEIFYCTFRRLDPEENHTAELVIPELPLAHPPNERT
Test: BLI (Octet RED96), VHH on Penta-HIS sensor, human PD-L1-Fc in solution
property_name: kon (M⁻¹ s⁻¹)
Answers are plain numbers, in M⁻¹ s⁻¹.

{"binder": "3LIG8 VHH-(His)6 (pHEN6C-PelB-PD-L1 VHH-(His)6) (VHH) VHH: QVQLQESGGGLVQPGGSLRLSCTASGTIFSINRMDWFRQAPGKQRELVALITSDGTPTYADSAKGRFTISRDNTKKTVSLQMNSLKPEDTAVYYCHVSSGVYNYWGQGTQVTVSS", "kon (M⁻¹ s⁻¹)": 484000}
{"binder": "2LIG3 VHH-(His)6 (pHEN6C-PelB-PD-L1 VHH-(His)6) (VHH) VHH: QVQLQESGGGLVQAGGSLRLSCTASGTIFSINHMDWFRQAPGKQRELVALITSDGFPTYADSAKGRFTISRDNTKKTVSLQMNSLKPEDTAVYYCHVSSGVYNYWGQGTQVTVSS", "kon (M⁻¹ s⁻¹)": 373000}
{"binder": "2LIG99 VHH-(His)6 (pHEN6C-PelB-PD-L1 VHH-(His)6) (VHH) VHH: QVQLQESGGGLVQAGGSLRLSCTASGTIFSINRMDWFRQAPGKQRELVALITSDGTPAYADSAKGRFTISRDNTKKTVSLQMNSLKPEDTAVYYCHVSSGVYNYWGQGTQVTVSS", "kon (M⁻¹ s⁻¹)": 729000}
{"binder": "2LIG189 VHH-(His)6 (pHEN6C-PelB-PD-L1 VHH-(His)6) (VHH) VHH: QVQLQESGGGLVQAGGSLRLSCAASGKIFSGNDMGWYRQAPGKQRELVGIITSGGITDYADAVKGRFTISRDNAKNMMYLQMNSLKPEDTAVYYCNMRDRTIWWGQGTQVTVSS", "kon (M⁻¹ s⁻¹)": 174000}

Turning now to a further binder:
For reference, reported kon for 2LIG27 VHH-(His)6 (pHEN6C-PelB-PD-L1 VHH-(His)6) (VHH) VHH: QVQLQESGGGVVQAGGSLRLSCTASGTIFSINRMDWFRQAPGKQRELVALITSDGTPTYADSAKGRFTISRDNTKKTVSLQMNSLKPEDTAVYYCHVSSGVYNYWGQGTQVTVSS stands at 472000
